FYI, the data here is from patent US8138168B1.

Molecular target: Recombinant human renin (Homo sapiens, UniProt P00797)
Construct: isolate the active form (residues 67-406); made in house; host or cells: FreeStyle 293-F cells (transient expression of pcDNA3.1(+)/hREN)
Sequence (P00797 67-406): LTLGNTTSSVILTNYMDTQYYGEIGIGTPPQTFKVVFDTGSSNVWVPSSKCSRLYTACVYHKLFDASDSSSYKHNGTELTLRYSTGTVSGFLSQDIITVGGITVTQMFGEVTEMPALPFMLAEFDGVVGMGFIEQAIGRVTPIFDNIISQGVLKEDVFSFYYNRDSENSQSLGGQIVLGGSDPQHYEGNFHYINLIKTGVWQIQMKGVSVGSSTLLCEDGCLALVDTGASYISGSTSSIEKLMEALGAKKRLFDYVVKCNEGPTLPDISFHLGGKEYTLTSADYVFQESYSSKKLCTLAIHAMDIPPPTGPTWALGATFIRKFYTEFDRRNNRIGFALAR
Experiment: In vitro enzymatic activity assay of renin inhibitors (fluorogenic peptide substrate)
Type: biochemical
Conditions: read-out: IC50 of Exemplified Compounds Against Renin
Measured attribute: IC50

>  <Compound>
N[C@@H](CC(=O)N1CCCC(c2nc3ccccc3[nH]2)C1)Cc1ccc([N+](=O)[O-])cc1 (stereo partly drawn)

>  <Tested on>
Recombinant human renin (Homo sapiens, UniProt P00797)

>  <IC50>
> 1000 nM

$$$$
>  <Compound>
COCCCn1c([C@@H]2CCCN(C(=O)C[C@H](N)Cc3ccc(-c4ccc(N5CCOCC5)cc4)cc3)C2)nc2ccccc21

>  <Tested on>
Recombinant human renin (Homo sapiens, UniProt P00797)

>  <IC50>
< 100 nM

$$$$
>  <Compound>
O=C(C1CCCN1)N1CCCC(c2nc3ccccc3[nH]2)C1 (stereo not drawn)

>  <Tested on>
Recombinant human renin (Homo sapiens, UniProt P00797)

>  <IC50>
> 1000 nM

$$$$

In the following, a different compound is considered.
Observed IC50 on Recombinant human renin (Homo sapiens, UniProt P00797), entry COCCCn1c([C@@H]2CCCN(C(=O)C[C@H](N)Cc3ccc(-c4ccc5c(c4)SCC(=O)N5)cc3)C2)nc2c(F)cccc21 , equals < 100 nM

###

Catalogue of pIC50 values
Biological target: Recombinant human renin (Homo sapiens, UniProt P00797)
Construct: isolate the active form (residues 67-406); made in house; host or cells: FreeStyle 293-F cells (transient expression of pcDNA3.1(+)/hREN)
Sequence (P00797 67-406): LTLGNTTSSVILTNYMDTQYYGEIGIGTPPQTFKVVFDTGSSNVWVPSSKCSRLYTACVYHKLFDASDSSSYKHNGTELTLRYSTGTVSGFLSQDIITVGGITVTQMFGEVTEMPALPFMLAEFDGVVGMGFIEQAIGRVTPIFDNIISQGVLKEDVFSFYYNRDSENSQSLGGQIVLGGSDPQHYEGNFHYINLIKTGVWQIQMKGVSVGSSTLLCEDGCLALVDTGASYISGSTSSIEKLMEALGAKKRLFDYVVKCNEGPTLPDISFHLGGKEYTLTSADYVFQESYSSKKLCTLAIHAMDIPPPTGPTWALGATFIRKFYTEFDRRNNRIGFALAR
Test: In vitro enzymatic activity assay of renin inhibitors (fluorogenic peptide substrate)
Type: biochemical
Settings: read-out: IC50 of Exemplified Compounds Against Renin
Description: Test compounds in varying concentrations may be reacted with recombinant human renin in the presence of substrate, e.g., QXL520-γ-Abu-[…](HiLyteFluo488)-Arg-OH (Anaspec, San Jose, Calif.). […] Inhibition constants (IC50) may be calculated by non-linear curve fitting of the compound concentrations and fluorescence intensities to the standard IC50 equation. […] The fluorescence intensity is determined upon the addition of substrate and determined again after incubation at 37° C. for one hour. […]
pIC50: −log10 of the molar value.

Recorded pIC50, per entry:
>  <Molecule>
CCNC(=O)Nc1ccc(-c2ccc(C[C@@H](N)CC(=O)N3CCC[C@@H](c4nc5ccccc5n4CCCOC)C3)cc2)cc1 [Compound 173]

>  <pIC50>
> 7.00

$$$$
>  <Molecule>
COCCCn1c([C@@H]2CCCN(C(=O)C[C@H](N)CNC(=O)Nc3ccccc3C(C)(C)C)C2)nc2ccccc21 [Compound 302]

>  <pIC50>
6.00 to 7.00

$$$$
>  <Molecule>
COCCCn1c([C@@H]2CCCN(C(=O)C[C@H](N)Cc3ccc4ccccc4c3)C2)nc2cccc(Cl)c21 [Compound 97]

>  <pIC50>
> 7.00

$$$$

Item CCOc1ccc(-c2ccc(C[C@@H](N)CC(=O)N3CCC[C@@H](c4nc5ccccc5n4CCCOC)C3)cc2)cn1 [Compound 138] was tested on Recombinant human renin (Homo sapiens, UniProt P00797); the reported pIC50 is > 7.00

Bench note, Recombinant human renin (Homo sapiens, UniProt P00797): entry COCCCn1c([C@@H]2CCCN(C(=O)CC(O)Cc3ccc(-c4ccccc4)cc3)C2)nc2ccccc21 (stereo in doubt) [Compound 73] , its pIC50 = 6.00 to 7.00

The recorded pIC50 with Recombinant human renin (Homo sapiens, UniProt P00797) for CC(=O)NCCn1c([C@@H]2CCCN(C(=O)C[C@H](N)Cc3ccc(-c4ccc(N5CCNC5=O)cc4)cc3)C2)nc2ccccc21 [Compound 462] was 6.00 to 7.00

###

molecular target: Recombinant human renin (Homo sapiens, UniProt P00797); construct: isolate the active form (residues 67-406); made in house; host or cells: FreeStyle 293-F cells (transient expression of pcDNA3.1(+)/hREN); assay: In vitro enzymatic activity assay of renin inhibitors (fluorogenic peptide substrate); assay type: biochemical; details: read-out: IC50 of Exemplified Compounds Against Renin
Measured attribute: IC50

>  <Molecule>
COCCCn1c([C@@H]2CCCN(C(=O)C[C@H](N)CNC(=O)N3CCCC3)C2)nc2ccccc21

>  <IC50>
> 1000 nM

$$$$
>  <Molecule>
NC(=O)CCn1c([C@@H]2CCCN(C(=O)C[C@H](N)Cc3ccc(-c4ccncc4)cc3)C2)nc2ccccc21

>  <IC50>
100 to 1000 nM

$$$$
>  <Molecule>
CC(=O)NCCn1c([C@@H]2CCCN(C(=O)C[C@H](N)Cc3ccc(-c4cnc(N)nc4)cc3)C2)nc2ccccc21

>  <IC50>
100 to 1000 nM

$$$$
>  <Molecule>
COCCCn1c([C@@H]2CCCN(C(=O)C[C@H](N)Cc3ccc(-c4ccc(N)nc4)cc3)C2)nc2c(F)cccc21

>  <IC50>
< 100 nM

$$$$
>  <Molecule>
COCCCn1c([C@@H]2CCCN(C(=O)C[C@H](N)CNC(=O)c3ccc(-c4ccsc4)cc3)C2)nc2ccccc21

>  <IC50>
< 100 nM

$$$$

The molecule COCCCn1c([C@@H]2CCCN(C(=O)C[C@H](N)CNS(=O)(=O)c3cccc(OC)c3)C2)nc2ccccc21 showed IC50 equal to 100 to 1000 nM

So for NC1(C(=O)N2CCCC(c3nc4ccccc4[nH]3)C2)CCC1 (stereo not shown) , the logged IC50 turned out to be > 1000 nM

Entry COCCCn1c(C2CCCN(C(=O)C[C@H](N)Cc3ccc4ccccc4c3)C2)nc2ccc(C(=O)OC)cc21 (stereo partly shown) , IC50 reported as 100 to 1000 nM

Field IC50 (entry COCCCn1c([C@@H]2CCCN(C(=O)[C@@H]3CN(S(=O)(=O)c4ccccc4)C[C@H]3N)C2)nc2ccccc21 ) reads > 1000 nM

Given item COCCCn1c([C@H]2CCCN(C(=O)C[C@@H](N)Cc3ccc(Cl)cc3)C2)nc2ccccc21 , the value recorded as its IC50 is > 1000 nM

response.value for COCCCn1c([C@@H]2CCCN(C(=O)C[C@H](N)CNC(=O)Nc3ccc(OC)cc3OC)C2)nc2ccccc21 (field: IC50) = 100 to 1000 nM

###

Property: IC50; scope: individual molecules
Target: Recombinant human renin (Homo sapiens)
Construct: isolate the active form (residues 67-406); made in house; host or cells: FreeStyle 293-F cells (transient expression of pcDNA3.1(+)/hREN)
Sequence (P00797 67-406): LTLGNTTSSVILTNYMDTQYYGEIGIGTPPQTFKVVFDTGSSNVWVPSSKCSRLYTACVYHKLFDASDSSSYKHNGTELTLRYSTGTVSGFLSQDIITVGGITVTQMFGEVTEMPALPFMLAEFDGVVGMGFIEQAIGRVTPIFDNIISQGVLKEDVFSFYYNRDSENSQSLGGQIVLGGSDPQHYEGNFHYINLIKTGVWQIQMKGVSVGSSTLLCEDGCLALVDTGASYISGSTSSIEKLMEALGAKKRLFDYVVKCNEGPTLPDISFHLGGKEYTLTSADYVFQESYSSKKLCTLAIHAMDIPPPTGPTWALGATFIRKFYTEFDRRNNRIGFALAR
Experiment: In vitro enzymatic activity assay of renin inhibitors (fluorogenic peptide substrate)
Type: biochemical
Details: read-out: IC50 of Exemplified Compounds Against Renin

Solved entries:
>  <Molecule>
COCCCn1c([C@@H]2CCCN(C(=O)[C@@H]3CN(C(=O)CC4CCCCC4)C[C@H]3N)C2)nc2ccccc21

>  <IC50>
> 1000 nM

$$$$
>  <Molecule>
COCCCn1c([C@@H]2CCCN(C(=O)C[C@H](N)CNC(=O)Nc3ccccc3)C2)nc2ccccc21

>  <IC50>
100 to 1000 nM

$$$$
>  <Molecule>
COCCCn1c([C@@H]2CCCN(C(=O)[C@@H]3CN(S(=O)(=O)c4cccc(-c5ccnc(C)n5)c4)C[C@H]3N)C2)nc2ccccc21

>  <IC50>
100 to 1000 nM

$$$$
>  <Molecule>
COCCCn1c([C@@H]2CCCN(C(=O)C[C@H](N)Cc3ccc(-c4ccccc4COC)cc3)C2)nc2ccccc21

>  <IC50>
< 100 nM

$$$$
>  <Molecule>
COCCCn1c([C@@H]2CCCN(C(=O)[C@@H]3CN(C(=O)c4ccccc4Cl)C[C@H]3N)C2)nc2ccccc21

>  <IC50>
> 1000 nM

$$$$

For reference, reported IC50 for COCCCn1c(C2CC(C)CN(C(=O)C[C@H](N)Cc3ccc4ccccc4c3)C2)nc2ccccc21 (some centres unmarked) stands at > 1000 nM
